The reported numbers originate from patent EP4755449A2.

Catalogue of ratio of KD at pH 5.8/pH7.4 values
SYSTEM NAME: T1, mouse latent myostatin (mouse, UniProt O08689 26-267; O08689 268-376)
T1 sequence 1: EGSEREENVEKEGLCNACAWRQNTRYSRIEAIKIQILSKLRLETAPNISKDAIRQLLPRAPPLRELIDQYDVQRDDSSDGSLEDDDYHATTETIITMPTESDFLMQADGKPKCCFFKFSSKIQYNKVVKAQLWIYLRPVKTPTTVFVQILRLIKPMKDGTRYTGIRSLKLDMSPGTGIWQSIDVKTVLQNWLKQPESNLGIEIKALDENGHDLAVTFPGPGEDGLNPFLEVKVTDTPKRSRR
T1 sequence 2: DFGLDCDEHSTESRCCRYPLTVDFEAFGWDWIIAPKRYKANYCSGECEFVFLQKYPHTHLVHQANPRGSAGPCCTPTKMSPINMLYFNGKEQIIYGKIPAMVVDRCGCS
PROTOCOL DESCRIPTION: SPR 37C

| BINDER | ratio of KD at pH 5.8/pH7.4 |
| --- | --- |
| MS_M103245H1233-SG1/M103202L1045-SK1 (antibody, human IgG1, kappa, V domains shown, also called MS1032LO23-SG1) VH: QVTLKESGPVLVKPTETLTLTCKVSGIDLSHEDISWVRQAPGKGLEWVSIISYAGSTYYASWAKGRLTISKDTSKNQVVLTMTNMDPVDTATYYCARGVPAYSHGGDLWGQGTLVTVSS VL: DIVMTQSPATLSLSPGERATLSCTTSQSVYHENWLSWFQQKPGQPPKLLIYWASTLAYGVPSRFSGSGSGTDFTLTISSLQPEDAATYYCAGGYGGGRYAFGQGTKVEIKR | 24 |
| MS_M103205H1046-SG1/M103202L889-SK1 (antibody, human IgG1, kappa, V domains shown, also called MS1032LO10-SG1) VH: QVTLKESGPVLVKPTETLTLTCTVSGIDLSHTDISWVRQAPGKGLEWVGIISYAGKTYYASWAKKRLTISKDTSKNQVVLTMTNMDPVDTATYYCARGVPAYSHGGDLWGQGTLVTVSS VL: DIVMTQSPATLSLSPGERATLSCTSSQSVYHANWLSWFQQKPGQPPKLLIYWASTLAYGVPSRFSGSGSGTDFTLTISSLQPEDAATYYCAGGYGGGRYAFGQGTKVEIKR | 35 |
| MS_M103205H1047-SG1/M103202L889-SK1 (antibody, human IgG1, kappa, V domains shown, also called MS1032LO11-SG1) VH: QVTLKESGPVLVKPTETLTLTCTVSGIDLSHTDISWVRQAPGKGLEWVGIISYAGKKYYASWAKGRLTISKDTSKNQVVLTMTNMDPVDTATYYCARGVPAYSHGGDLWGQGTLVTVSS VL: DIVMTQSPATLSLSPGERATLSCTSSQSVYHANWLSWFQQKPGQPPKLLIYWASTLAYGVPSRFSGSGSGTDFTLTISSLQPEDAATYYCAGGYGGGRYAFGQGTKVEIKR | 81 |
